MEASUREMENT_NOTES: Mouse liver microsome stability
Assay type: in vitro ADME
CONDITION_INFO: mouse, liver microsomes, 0.5 mg protein/mL, 37 °C, read-out: MLM t1/2
READOUT_KIND: half-life at 1 h, 1 µM (min)

A: [O-][n+]1cccc(CCOc2ccc(Cl)c(C3CC3)c2)c1
B: O=c1cccc(CCOc2ccc(Cl)cc2)[nH]1
Task item: Which numeric half-life at 1 h, 1 µM is bigger, that of A or that of B ? Your answer should be the label attached to the chosen record.
Reply: B
(B: 11.7 min, A: 7.2 min)

====

MEASUREMENT_NOTES: In vivo pharmacokinetic study, oral dosing
Design: species or system male C57BL/6J mice
CONDITION_INFO: male, C57BL/6J; mouse plasma, PO 10 mg/kg; second number = SD
READOUT_KIND: Tmax at 24 h (min)
Answer in min, number only, no unit symbol.

Entry [O-][n+]1cc(O)cc(CCCc2ccc(Cl)c(C(F)(F)F)c2)c1 ; Tmax at 24 h = 25

====

MEASUREMENT_NOTES: In vivo pharmacokinetic study, oral dosing
Parameters: species or system male C57BL/6J mice
CONDITION_INFO: male, C57BL/6J; mouse plasma, PO 10 mg/kg; second number = SD; read-out: MRT0-inf
READOUT_KIND: MRT inf at 24 h (h)
I only need the number, in h, no unit after it.

Form field MRT inf at 24 h, entry [O-][n+]1cc(O)cc(CCCc2ccc(Cl)c(C(F)(F)F)c2)c1 [Compound 69] : 1.35

====

MEASUREMENT_NOTES: Mouse liver microsome stability
Type: in vitro ADME
CONDITION_INFO: mouse, liver microsomes, 0.5 mg protein/mL, 37 °C, read-out: MLM t1/2
READOUT_KIND: half-life at 1 μM (h)
Report as a plain number; the unit h is understood.

The value of half-life at 1 μM measured for the molecule [O-][n+]1cc(O)cc(CCCc2ccc(Cl)c(C(F)(F)F)c2)c1 turned out to be 1.75

====

MEASUREMENT_NOTES: In vivo pharmacokinetic study, oral dosing
Design: species or system male C57BL/6J mice
CONDITION_INFO: male, C57BL/6J; mouse plasma, PO 10 mg/kg
READOUT_KIND: Cmax at 24 h (nM)
Supply the numeric figure in nM, leaving out any unit text.

// Cmax at 24 h lookup, molecule = [O-][n+]1cc(O)cc(CCCc2ccc(Cl)c(C(F)(F)F)c2)c1 , result: 310

The reported numbers originate from paper PMC10788923.
